For each of the molecules below, state its Encaps. efficiency (%).
Test: RNA encapsulation efficiency of LNPs by Quant-IT Ribogreen
Type: physicochemical
Conditions: LNPs with luciferase mRNA; ionizable lipid:non-cationic lipid:sterol:PEG-modified lipid 50:10:38.5:1.5; percentage of RNA entrapped in the LNP
Protocol: The mRNA aqueous solution was then carefully added to the ethanol solution, and the resulted solution was homogenized by pipetting up and down for 4-5 times. The resulting LNPs were immediately diluted 1:1 with Tris buffer and dialyzed overnight against Tris buffer containing 15% sucrose. The resulting LNP solution was then collected, and the encapsulated mRNA was assessed by Quant-IT® Ribogreen (Invitrogen R11490) following the manufacturer's instructions. […]
Provide the measurement as a number trailed by its unit.

Quick check: Encaps. efficiency (%) of CCCCCCCC#CCOC(=O)CCSCCC(NC(=O)C(CCCCCC)CCCCCCCC)C(=O)NCCN1CCOCC1 (stereo not shown) ? 41.23%

CCCCCCCCCCCCOC(=O)CCSCCC(NC(=O)C(CCCCCC)CCCCCCCC)C(=O)NCC1CCN(C)CC1 (stereo not shown) ? 98.99%

CCCCCCCC/C=C\CCCCCCCCOC(=O)CCSCCC(C(=O)NC1CCN(C)CC1)C(=O)OC(CCCCCCCC)CCCCCCCC (stereo not shown) ? 86.01%

CCCCCCCCCCCCCCOC(=O)CCSCCC(C(=O)NC1CCN(C)CC1)C(=O)OC(CCCCCCCC)CCCCCCCC (stereo not shown) ? 85.85%

CCCCCCCCCCC(CCCCCCCC)C(=O)NC(CCSCCC(=O)OCC(CCCCCC)CCCCCCCC)C(=O)NC1CCN(C)CC1 (stereo not shown) ? 77.19%

CCCCCCCCCCCCOC(=O)CCSCC(CC(=O)NCCCN1CCOCC1)C(=O)OC(CCCCCCCC)CCCCCCCC (stereo not shown) ? 36.86%

CCCCCCCCCCC(CCCCCCCC)C(=O)NC(CCSCCC(=O)OCCCCCCCC)C(=O)NCC1CCN(C)CC1 (stereo not shown) ? 97.15%

----------
For each of the compounds below, state its P.D.I..
Assay: Size distribution, polydispersity and Z-potential of LNPs by dynamic light scattering (Malvern Zetasizer)
Format: physicochemical
Conditions: LNPs, standard formulation 50:10:38.5:1.5; DLS

Quick check: P.D.I. of CCCCCCCCC(CCCCCC)C(=O)NC(CCSCCC(=O)OCCCCCCCC(C)C)C(=O)NCCCN1CCOCC1 (centres unmarked) [VC-LC-0165] ? 0.21

CCCCCCCCC(CCCCCC)C(=O)NC(CCSCCC(=O)OCC(CC)CCCC)C(=O)NC1CCN(C)CC1 (centres unmarked) [VC-LC-0212] ? 0.26

CCCCCCCCC(CCCCCC)COC(=O)CCSCC(CC(=O)NCCCN1CCOCC1)C(=O)OC(CCCCCCCC)CCCCCCCC (centres unmarked) [VC-LC-0541] ? 0.11

CCCCCCCCCCCCCOC(=O)CCSCCC(NC(=O)C(CCCCCC)CCCCCCCC)C(=O)NCCN1CCOCC1 (centres unmarked) [VC-LC-0392] ? 0.19

CCCCCCCCCCCCC(CCCCCCCCCC)COC(=O)CCSCC(CC(=O)NC1CCN(C)CC1)C(=O)OCC(CCCCCC)CCCCCCCC (centres unmarked) [VC-LC-0537] ? 0.14

----------
Experiment: RNA encapsulation efficiency of LNPs by Quant-IT Ribogreen
Type: physicochemical
Conditions: LNPs with luciferase mRNA; ionizable lipid:non-cationic lipid:sterol:PEG-modified lipid 50:10:38.5:1.5; percentage of RNA entrapped in the LNP
Measured Endpoint: Encaps. efficiency (%)
Your answer is read as %, so omit the unit and give the number.

Quick check: Encaps. efficiency (%) of CCCCCCCCCCCCCCCCOC(=O)CCSCC(CC(=O)NCCCN1CCOCC1)C(=O)OC(CCCCCCCC)CCCCCCCC (stereo not shown) [VC-LC-0547] ? 31.52

CCCCCCCCCCCCC(CCCCCCCCCC)COC(=O)CCSCCC(NC(=O)C(CCCCCC)CCCCCCCC)C(=O)NC1CCN(C)CC1 (stereo not shown) [VC-LC-0428] ? 65.37

CCCCCCCCC(CCCCCC)C(=O)NC(CCSCCC(=O)OCCCCCCCC(C)C)C(=O)NCCN(CC)CC (stereo not shown) [VC-LC-0475] ? 52.31

CCCCCCCCCCCCCCCCCC(=O)NC(CCSCCC(=O)OCCCCCCCCCCCC)C(=O)NC1CCN(C)CC1 (stereo not shown) [VC-LC-0434] ? 99.09

CCCCCCCCCCCCCOC(=O)CCSCCC(NC(=O)C(CCCCCC)CCCCCCCC)C(=O)NCC1CCN(C)CC1 (stereo not shown) [VC-LC-0490] ? 97.16

CCCCCCCCC(CCCCCC)C(=O)NC(CCSCCC(=O)OCCCCCCCC(C)C)C(=O)NCC1CCN(C)CC1 (stereo not shown) [VC-LC-0492] ? 98.15

CCCCCCCCCCCCCCCCCCOC(=O)CCSCC(CC(=O)NC1CCN(C)CC1)C(=O)OCC(CCCCCC)CCCCCCCC (stereo not shown) [VC-LC-0530] ? 97.41

CCCCCCCC/C=C\CCCCCCCC(=O)NC(CCSCCC(=O)OCCCCCCCCCCCC)C(=O)NC1CCN(C)CC1 (stereo not shown) [VC-LC-0326] ? 99.06

CCCCCCCC/C=C\CCCCCCCC(=O)NC(CCSCCC(=O)OCC(CCCCCCCCCC)CCCCCCCCCCCC)C(=O)NC1CCN(C)CC1 (stereo not shown) [VC-LC-0356] ? 68.27

CCCCCCCCCCCCC(CCCCCCCCCC)COC(=O)CCSCC(CC(=O)NC1CCN(C)CC1)C(=O)OCC(CCCCCC)CCCCCCCC (stereo not shown) [VC-LC-0537] ? 69.42

CCCCCCCCCCCCCCCCOC(=O)CCSCCC(NC(=O)C(CCCCCC)CCCCCCCC)C(=O)NCCN(CC)CC (stereo not shown) [VC-LC-0480] ? 73.32

CCCCCCCCCCCCCCOC(=O)CCSCCC(C(=O)NCCCn1ccnc1)C(=O)OC(CCCCCCCC)CCCCCCCC (stereo not shown) [VC-LC-0367] ? 47.47

CCCCCCCCC(CCCCCC)COC(=O)CCSCCC(NC(=O)C(CCCCCC)CCCCCCCC)C(=O)NCC1CCN(C)CC1 (stereo not shown) [VC-LC-0491] ? 72.06

CCCCCCCCCCC(CCCCCCCC)C(=O)NC(CCSCCC(=O)OCCCCCCCC(C)C)C(=O)NC1CCN(C)CC1 (stereo not shown) [VC-LC-0558] ? 50.58

CCCCCCCC#CCOC(=O)CCSCCC(NC(=O)CCCCCCC/C=C\CCCCCCCC)C(=O)NCCCN1CCOCC1 (stereo not shown) [VC-LC-0354] ? 68.28

CCCCCCCCCCCCC(CCCCCCCCCC)COC(=O)CCSCCC(NC(=O)C(CCCCCC)CCCCCCCC)C(=O)NCCN1CCOCC1 (stereo not shown) [VC-LC-0407] ? 60.22

CCCCCCCCC(CCCCCC)C(=O)NC(CCSCCC(=O)OCCCCCCC)C(=O)NCCCN(CCO)CCO (stereo not shown) [VC-LC-0207] ? 93.61

CCCCCCCCCCCCCCOC(=O)CCSCC(CC(=O)NCCCn1ccnc1)C(=O)OC(CCCCCCCC)CCCCCCCC (stereo not shown) [VC-LC-0299] ? 57.64

CCCCCCCCCCCCCCCCOC(=O)CCSCCC(NC(=O)C(CCCCCC)CCCCCCCC)C(=O)NCCN1CCN(C)CC1 (stereo not shown) [VC-LC-0185] ? 70.97

CCCCCCCCCCCCCCCCOC(=O)CCSCC(CC(=O)NC1CCN(C)CC1)C(=O)OCC(CCCCCC)CCCCCCCC (stereo not shown) [VC-LC-0531] ? 98.54

CCCCCCCC/C=C\CCCCCCCC(=O)NC(CCSCCC(=O)OCCCCCCCCCCCCCCCC)C(=O)NCCCN(CCO)CCO (stereo not shown) [VC-LC-0290] ? 56.36

CCCCCCCCCCCCCCCCOC(=O)CCSCCC(NC(=O)C(CCCCCC)CCCCCCCC)C(=O)NC1CCN(C)CC1 (stereo not shown) [VC-LC-0216] ? 52.13

CCCCCCCCCCCCCCCCOC(=O)CCSCCC(C(=O)NC1CCN(C)CC1)C(=O)OC(CCCCCCCC)CCCCCCCC (stereo not shown) [VC-LC-0445] ? 48.02

CCCCCCCCC(CCCCCC)C(=O)NC(CCSCCC(=O)OCCCCCC)C(=O)NCCCN1CCOCC1 (stereo not shown) [VC-LC-0175] ? 23.97

CCCCCCCCCCCCCCOC(=O)CCSCCC(NC(=O)C(CCCCCC)CCCCCCCC)C(=O)NCCN(CC)CC (stereo not shown) [VC-LC-0478] ? 65.16

CCCCCCCCCCCCOC(=O)CCSCCC(NC(=O)C(CCCCCC)CCCCCCCC)C(=O)NCCN(CC)CC (stereo not shown) [VC-LC-0477] ? 57.43

CCCCCCCCCCCCCCCCCC(=O)NC(CCSCCC(=O)OCCCCCCCCCCCCC)C(=O)NCCCN1CCOCC1 (stereo not shown) [VC-LC-0374] ? 70.37

CCCCCCCCCCCCOC(=O)CCSCCC(NC(=O)C(CCCCCC)CCCCCCCC)C(=O)NCCCn1ccnc1 (stereo not shown) [VC-LC-0260] ? 44.25
